Origin of values: patent US20220339143A1

- Assay summary: Single dose PK in healthy subjects (Cohorts 1, 2, S1 and S2), plasma
- Type: in vivo, human
- Condition summary: human, plasma, intravenous, 240 mg; 9 hr; read-out: Plasma concentration, Minimum
Property: concentration at 9 hr (ng/mL)

{"Cpd smiles": "COC(=O)N1CCC[C@H](NS(C)(=O)=O)[C@@H]1CO[C@H]1CC[C@@H](c2ccccc2)CC1", "Property": "concentration at 9 hr", "Readout units": "ng/mL", "Measured": 417}

---

- Assay summary: Single dose PK in patients with narcolepsy (Cohorts 5, 6 and 7), plasma
- Type: in vivo, human
- Condition summary: human, plasma, intravenous, 44.8 mg, Cmpd A 44.8 mg; Geo Mean; Cohort 5, 6, 7
Property: AUC(0-t) (ng·h/mL)

{"Cpd smiles": "COC(=O)N1CCC[C@H](NS(C)(=O)=O)[C@@H]1CO[C@H]1CC[C@@H](c2ccccc2)CC1", "Measured": 911}

---

- Assay summary: Single dose PK in healthy subjects (Cohorts 1, 2, S1 and S2), plasma
- Type: in vivo, human
- Condition summary: human, plasma, intravenous, 7 mg; 8 hr; read-out: Plasma concentration, Mean

{"Cpd smiles": "COC(=O)N1CCC[C@H](NS(C)(=O)=O)[C@@H]1CO[C@H]1CC[C@@H](c2ccccc2)CC1", "concentration at 8 h, ng/mL": 13}

---

- Assay summary: Single dose PK in healthy subjects (Cohorts 1, 2, S1 and S2), plasma
- Type: in vivo, human
- Condition summary: human, plasma, intravenous, 134.4 mg; 1.5 hr; read-out: Plasma concentration, Median
Property: concentration at 1.5 h (ng/mL)

{"Molecule": "COC(=O)N1CCC[C@H](NS(C)(=O)=O)[C@@H]1CO[C@H]1CC[C@@H](c2ccccc2)CC1 [Compound A]", "Measured": 221}

---

- Assay summary: Single dose PK in healthy subjects (Cohorts 1, 2, S1 and S2), plasma
- Format: in vivo, human
- Condition summary: human, plasma, iv, 28 mg, 28 mg single IV infusion, healthy subjects; read-out: AUC24 Median

{"Compound": "COC(=O)N1CCC[C@H](NS(C)(=O)=O)[C@@H]1CO[C@H]1CC[C@@H](c2ccccc2)CC1 [Compound A]", "AUC [ng·h/mL]": 543}

---

- Assay summary: Single dose PK in patients with narcolepsy (Cohorts 5, 6 and 7), plasma
- Format: in vivo, human
- Condition summary: human, plasma, iv, 5 mg; 2 hr; NT1, single 9 h IV infusion; read-out: Plasma concentration, Median

{"Molecule": "COC(=O)N1CCC[C@H](NS(C)(=O)=O)[C@@H]1CO[C@H]1CC[C@@H](c2ccccc2)CC1 [Compound A]", "concentration at 2 h": "9.15 ng/mL"}

---

- Assay summary: Single dose PK in healthy subjects (Cohorts 1, 2, S1 and S2), plasma
- Assay type: in vivo, human
- Condition summary: human, plasma, intravenous, 134.4 mg; 6 hr; read-out: Plasma concentration, Median

{"Molecule": "COC(=O)N1CCC[C@H](NS(C)(=O)=O)[C@@H]1CO[C@H]1CC[C@@H](c2ccccc2)CC1 [Compound A]", "Readout units": "ng/mL", "concentration at 6 h": 260}

---

- Assay summary: Single dose PK in healthy subjects (Cohorts 1, 2, S1 and S2), plasma
- Assay type: in vivo, human
- Condition summary: human, plasma, iv, 240 mg, 240 mg single IV infusion; 0.5 hr; read-out: Plasma Concentration of Cmpd A, Maximum

{"Cpd smiles": "COC(=O)N1CCC[C@H](NS(C)(=O)=O)[C@@H]1CO[C@H]1CC[C@@H](c2ccccc2)CC1", "concentration at 0.5 h (ng/mL)": 400}
